Record form. Attribute: Fold changes of MICs. Fill in for each entry.
Test system: EKO-35 araC::mdtEF Pore
TEST_DESCRIPTION: MIC susceptibility profiling, porinated efflux platform
Format: cell-based, Escherichia coli
RECORDED_CONDITIONS: EKO-35 araC::mdtEF Pore compared to EKO-35-Pore
Form entry: enter the amount, then its unit.

[Q] Return the recorded Fold changes of MICs value; entry: C[n+]1c2cc(N)ccc2cc2ccc(N)cc21.[Cl-] [acriflavine]
[A] 2 fold

[Q] Provide one value: measured Fold changes of MICs of O=C(Nc1cccc(Oc2c(F)c(F)c(F)c(F)c2F)c1)c1ccccc1 [compound 1]
[A] 1 fold

[Q] Tell us which Fold changes of MICs value is on record for N#CC(=NNc1ccc(F)c(Cl)c1)C(=O)c1ccc(Cl)cc1 [compound 15]
[A] 1 fold

[Q] Retrieve Fold changes of MICs measured for CN[C@H](CC(C)C)C(=O)N[C@H]1C(=O)N[C@@H](CC(N)=O)C(=O)N[C@H]2C(=O)N[C@H]3C(=O)N[C@H](C(=O)N[C@H](C(=O)O)c4cc(O)cc(O)c4-c4cc3ccc4O)[C@H](O)c3ccc(c(Cl)c3)Oc3cc2cc(c3O[C@@H]2O[C@H](CO)[C@@H](O)[C@H](O)[C@H]2O[C@H]2C[C@](C)(N)[C@H](O)[C@H](C)O2)Oc2ccc(cc2Cl)[C@H]1O [vancomycin] and print it.
[A] 1 fold

[Q] Determine its reported Fold changes of MICs: CN(C)[C@@H]1C(O)=C(C(N)=O)C(=O)[C@@]2(O)C(O)=C3C(=O)c4c(O)cccc4[C@@](C)(O)[C@H]3C[C@@H]12 [tetracycline]
[A] 1 fold

[Q] Find the measured Fold changes of MICs of COc1cc(Cc2cnc(N)nc2N)cc(OC)c1OC [trimethoprim] and report it.
[A] 2 fold

[Q] Please list Fold changes of MICs recorded for the compound O=C(N[C@H](CO)[C@H](O)c1ccc([N+](=O)[O-])cc1)C(Cl)Cl [chloramphenicol]
[A] 1 fold

[Q] Name the recorded Fold changes of MICs of the compound listed here: O=C(Nc1ccccc1)Nc1ccc(Br)c(C(F)(F)F)c1 [compound 6]
[A] 1 fold

[Q] Given Nc1ccc(S(=O)(=O)Nc2nccs2)cc1 [Sulfathiazole] , respond with its Fold changes of MICs.
[A] 2 fold

[Q] Tell us which Fold changes of MICs value is on record for C[C@H](CCC(=O)NCCS(=O)(=O)[O-])[C@H]1CC[C@H]2[C@@H]3CC[C@@H]4C[C@H](O)CC[C@]4(C)[C@H]3C[C@H](O)[C@]12C.[Na+] [sodium taurodeoxycholate]
[A] 4 fold

[Q] Please give measured Fold changes of MICs of the following entry: CC[C@H]1OC(=O)[C@H](C)[C@@H](O[C@H]2C[C@@](C)(OC)[C@@H](O)[C@H](C)O2)[C@H](C)[C@@H](O[C@@H]2O[C@H](C)C[C@H](N(C)C)[C@H]2O)[C@](C)(O)C[C@@H](C)CN(C)[C@H](C)[C@@H](O)[C@]1(C)O [azithromycin]
[A] 4 fold

[Q] Identify measured Fold changes of MICs associated with CC(=O)NC[C@H]1CN(c2ccc(N3CCOCC3)c(F)c2)C(=O)O1 [linezolid]
[A] 2 fold

[Q] Quickly give me recorded Fold changes of MICs for O=[N+]([O-])c1ccc2c(c1)C(=NO)c1cc([N+](=O)[O-])ccc1-2 [compound 11]
[A] 64 fold

[Q] Determine from records and report Fold changes of MICs for CC(=O)O[C@H]1C[C@@]2(C)[C@@H](C[C@@H](O)[C@H]3[C@@]4(C)CC[C@@H](O)[C@@H](C)[C@@H]4CC[C@@]32C)/C1=C(\CCC=C(C)C)C(=O)O [fusidic acid]
[A] 8 fold
